- Target Or System: recombinant RORγ Ligand Binding Domain (LBD) protein (Homo sapiens (Human))
- Assay: Radio-Ligand RORγ Binding Assay (Assay 1)
- Measurement Context: competition with 25-hydroxy [26,27-3H]-cholesterol, SPA; Table 9; read-out: RORγ Binding Ki Range*
pKi: −log10 of the molar value.
Metric: pKi

Use the examples below as a reference point.
- CC(C)[C@H]1c2nc(C(=O)NCc3ccc(S(C)(=O)=O)cc3)sc2CN1Cc1ccn(C)c(=O)c1: < 6.00
- CCS(=O)(=O)c1ccc(CC(=O)Nc2nc3c(s2)CN(Cc2ccc(C#N)cc2)[C@@H]3C(C)(C)C)cc1: > 7.00
- CCS(=O)(=O)c1ccc(CC(=O)Nc2nc3c(s2)CN(Cc2ccc(F)c(F)c2)[C@H]3C(C)C)cc1: > 7.00
- CCS(=O)(=O)c1ccc(CC(=O)Nc2nc3c(s2)CN(c2cnc(C(F)(F)F)cn2)[C@H]3C(C)C)cc1: > 7.00
- CCS(=O)(=O)c1ccc(CC(=O)Nc2nc3c(s2)CN(Cc2ccc(Cl)cc2)[C@H]3C(C)C)c(Cl)c1: > 7.00

Read the next record carefully.
Query the reported pKi for recombinant RORγ Ligand Binding Domain (LBD) protein (Homo sapiens (Human)); item: "Cc1nnc(-c2ccc(CC(=O)Nc3nc4c(s3)CN(Cc3ccc(Cl)cc3)[C@H]4C(C)C)cc2)o1"
6.00 to 7.00

###

pKi values for the compounds below.
- Target Or System: recombinant RORγ Ligand Binding Domain (LBD) protein (Homo sapiens (Human))
- Assay: Radio-Ligand RORγ Binding Assay (Assay 1)
- Measurement Context: competition with 25-hydroxy [26,27-3H]-cholesterol, SPA; Table 9; read-out: RORγ Binding Ki Range*
pKi: −log10 of the molar value.

Use the examples below as a reference point.
- CC(C)[C@@H]1c2nc(NC(=O)Cc3ccc(S(C)(=O)=O)cc3)sc2CN1Cc1cccc(C#N)c1: 6.00 to 7.00
- CC(C)[C@H]1c2nc(NC(=O)Cc3ccc(S(C)(=O)=O)cc3)sc2CN1Cc1ccc(C(F)(F)F)nn1: 6.00 to 7.00
- CCS(=O)(=O)c1ccc(CC(=O)Nc2nc3c(s2)CN(Cc2ccc(=O)n(C(F)F)c2)[C@H]3C(C)C)cc1: > 7.00

So what's the measured pKi for this one? "CCS(=O)(=O)c1ccc(CC(=O)Nc2nc3c(s2)CN(c2nc(C)cc(C(F)(F)F)n2)[C@@H]3C(C)C)cc1"
> 7.00

###

pIC50 values for the compounds below.
- Target Or System: full-length RORγt in Jurkat cells (Homo sapiens (Human), UniProt P51449)
- Sequence (P51449 other isoform, or with tags, fused parts or gaps): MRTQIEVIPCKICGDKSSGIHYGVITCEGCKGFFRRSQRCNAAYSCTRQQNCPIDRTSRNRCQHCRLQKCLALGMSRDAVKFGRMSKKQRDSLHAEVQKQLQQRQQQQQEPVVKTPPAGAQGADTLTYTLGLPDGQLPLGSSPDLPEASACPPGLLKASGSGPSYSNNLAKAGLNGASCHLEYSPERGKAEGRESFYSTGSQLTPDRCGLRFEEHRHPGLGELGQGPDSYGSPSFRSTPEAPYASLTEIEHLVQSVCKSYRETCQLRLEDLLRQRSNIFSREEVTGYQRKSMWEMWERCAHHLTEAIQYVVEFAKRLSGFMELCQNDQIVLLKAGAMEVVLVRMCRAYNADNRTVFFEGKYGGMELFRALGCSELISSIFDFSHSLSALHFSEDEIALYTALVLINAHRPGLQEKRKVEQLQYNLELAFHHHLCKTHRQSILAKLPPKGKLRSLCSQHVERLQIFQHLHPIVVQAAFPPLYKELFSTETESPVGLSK
- Assay: RORγt 5xRORE Assay in Jurkat Cells (Assay 2)
- Type: cell-based
- Measurement Context: Nanoluc luciferase reporter, 16-18 hrs, Table 9, read-out: RORγt5X IC50 Range*
- Method: [formula] RORγt 5xRORE Assay in Jurkat Cells (Assay 2) Compounds of the present invention were tested for RORγ inverse agonist activity in a cell-based, transcriptional activity assay. Secreted Nanoluc® luciferase was used as a reporter for transcriptional activity of the full-length RORγt in Jurkat cells (ATCC, Cat. # TIB-152). […] Luciferase activity in the conditioned supernatants was determined with NanoGlo® assay reagents (Promega, Cat. # N1130).
pIC50: −log10 of the molar value.

Use the examples below as a reference point.
• CCS(=O)(=O)c1cnc(CC(=O)Nc2nc3c(s2)CN(Cc2ccc(-c4nnn(C)n4)cc2)[C@H]3C(C)C)nc1 = 6.00 to 7.00
• CCS(=O)(=O)c1ccc(CC(=O)Nc2nc3c(s2)CN(CCc2ccccc2)[C@@H]3C(C)C)cc1 = < 6.00
• CCS(=O)(=O)c1ccc(CC(=O)Nc2nc3c(s2)CN(C(C)c2ccc(F)cc2)[C@@H]3C(C)C)cc1 (stereo partly shown) = < 6.00
• CC(C)[C@H]1c2nc(NC(=O)Cc3ccc(S(C)(=O)=O)cc3)sc2CN1Cc1ccn(C)c(=O)c1 = < 6.00
• CC(C)[C@H]1c2nc(NC(=O)Cc3ccc(Br)cc3)sc2CN1Cc1ccc(Cl)cc1 = < 6.00
• CC[C@H]1c2nc(NC(=O)Cc3ccc(S(=O)(=O)CC)cc3)sc2CN1[C@@H](C)c1ncc(Cl)cc1F = 6.00 to 7.00
• CCS(=O)(=O)c1ccc(CC(=O)Nc2nc3c(s2)CN(Cc2ccc(=O)n(C4CC4)c2)[C@H]3C(C)C)cc1 = 6.00 to 7.00
• CCS(=O)(=O)c1ccc(CC(=O)Nc2nc3c(s2)CN([C@@H](C)Cc2ccccc2C(F)(F)F)[C@@H]3C(C)C)cc1 = < 6.00

So what's the measured pIC50 for this one? "CC[C@@H]1c2nc(NC(=O)Cc3ccc(S(=O)(=O)CC)cc3)sc2CN1Cc1ccc(OC(C)C)cc1"
< 6.00

Please answer likewise for "CC(C)[C@H]1c2nc(NC(=O)Cc3ccc(Cl)cc3)sc2CN1Cc1ccc(Cl)cc1"
< 6.00

###

- Target Or System: recombinant RORγ Ligand Binding Domain (LBD) protein (Homo sapiens (Human), UniProt P51449)
- Sequence (P51449 269-508): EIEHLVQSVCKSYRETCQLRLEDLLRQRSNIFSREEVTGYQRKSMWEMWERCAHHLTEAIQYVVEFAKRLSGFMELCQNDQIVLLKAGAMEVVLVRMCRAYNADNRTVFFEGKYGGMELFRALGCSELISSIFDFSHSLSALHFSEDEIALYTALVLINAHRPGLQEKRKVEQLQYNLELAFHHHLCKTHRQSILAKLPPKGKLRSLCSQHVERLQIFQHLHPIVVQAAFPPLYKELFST
- Assay: Radio-Ligand RORγ Binding Assay (Assay 1)
- Measurement Context: competition with 25-hydroxy [26,27-3H]-cholesterol, SPA; Table 9; read-out: RORγ Binding Ki Range*
Metric: Ki

* CCS(=O)(=O)c1ccc(CC(=O)Nc2nc3c(s2)CN(C[C@H]2CC[C@@H](C(F)(F)F)OC2)[C@H]3C(C)C)nc1 (single isomer, unassigned) | < 100 nM
* CCS(=O)(=O)c1ccc(CC(=O)Nc2nc3c(s2)CN(Cc2ccc(C(F)(F)F)nn2)[C@H]3C(C)C)cc1 | < 100 nM
* CCS(=O)(=O)c1ccc(CC(=O)Nc2nc3c(s2)CN(C[C@H]2CC[C@@H](C(F)(F)F)OC2)[C@H]3C(C)C)cc1 (single isomer, unassigned) | < 100 nM
* CCS(=O)(=O)c1ccc(CC(=O)Nc2nc3c(s2)CN(C[C@H]2CC[C@H](C(N)=O)CC2)[C@H]3C(C)C)cc1 | < 100 nM
* CC[C@@H]1c2nc(NC(=O)Cc3ccc(S(=O)(=O)CC)cc3)sc2CN1Cc1ccc(OC(C)C)cc1 | < 100 nM

Read the next record carefully.
So what's the measured Ki for this one? "CCS(=O)(=O)c1ccc(CC(=O)Nc2nc3c(s2)CN(Cc2ccc(Cl)cc2)[C@H]3C(C)C)c(C#N)c1"
< 100 nM

###

- Target Or System: full-length RORγt in Jurkat cells (Homo sapiens (Human))
- Assay: RORγt 5xRORE Assay in Jurkat Cells (Assay 2)
- Format: cell-based
- Measurement Context: Nanoluc luciferase reporter, 16-18 hrs, Table 9, read-out: RORγt5X IC50 Range*
pIC50: −log10 of the molar value.
Metric: pIC50

Use the examples below as a reference point.
• CCS(=O)(=O)c1ccc(CC(=O)Nc2nc3c(s2)CN(C[C@H]2CC[C@@](C)(C#N)CC2)[C@H]3C(C)C)cc1 (single isomer, unassigned) = > 7.00
• CCS(=O)(=O)c1ccc(CC(=O)Nc2nc3c(s2)CN(Cc2ccc4c(c2)CCO4)[C@H]3C(C)C)cc1 = < 6.00

Read the next record carefully.
So what's the measured pIC50 for this one? CC(C)[C@H]1c2nc(NC(=O)Cc3ccc(S(C)(=O)=O)cc3)sc2CN1[C@@H](C)c1ccc(C#N)c(F)c1 (single isomer, unassigned)
> 7.00
